Source of measurements: patent US9051342B2

assay_endpoint: melting point

>>> reported_result("O=C(O)c1cccc(-n2cc(-c3ccc(F)cc3F)cn2)c1")
"283 to 285 °C"
>>> reported_result("O=C(O)c1ccc(-c2cnn(-c3ccc4c(c3)OCO4)c2)cc1")
"266 to 268 °C"
>>> reported_result("O=C(O)c1cccc(-c2ccn(-c3ccc(OCc4ccccc4)cc3)n2)c1")
"210 to 212 °C"
>>> reported_result("O=C(O)c1ccc(-c2cnn(-c3ccc(Cl)c(Cl)c3)c2)cc1")
"286 to 289 °C"
>>> reported_result("O=C(O)c1cccc(-n2cc(-c3cccc(Br)c3)cn2)c1")
"177 to 178 °C"
>>> reported_result("O=C(O)c1cccc(-n2cc(-c3cccc(Oc4ccccc4)c3)cn2)c1")
"164 to 165 °C"
>>> reported_result("O=C(O)c1cccc(-n2ccc(-c3cccc(F)c3)n2)c1")
"173 to 174 °C"
>>> reported_result("O=C(O)c1ccc(-n2cc(-c3ccc4c(c3)OCO4)cn2)cc1")
"286 to 288 °C"
>>> reported_result("O=C(O)c1ccc(-n2ccc(-c3ccccc3)n2)cc1")
"244 to 245 °C"
>>> reported_result("O=C(O)c1cccc(-n2ccc(-c3ccc(C(F)(F)F)cc3)n2)c1")
"225 to 227 °C"
>>> reported_result("COc1ccc(-c2cn(-c3ccc(C(=O)O)cc3)nn2)cc1")
"294 to 295 °C"
>>> reported_result("CN(C)c1ccc(-c2cnn(-c3cccc(C(=O)O)c3)c2)cc1")
"224 to 225 °C"
>>> reported_result("O=C(O)c1cccc(-n2cc(-c3cccc(F)c3)cn2)c1")
"228 to 230 °C"
>>> reported_result("O=C(O)c1ccc(-c2ccn(-c3ccccc3F)c2)cc1")
"202 to 204 °C"
>>> reported_result("O=C(O)c1cccc(-c2cnn(-c3ccc(F)cc3)c2)c1")
"235 to 237 °C"
>>> reported_result("O=C(O)c1cccc(-n2cc(-c3ccncn3)cn2)c1")
"297 to 299 °C"
>>> reported_result("O=C(O)c1cccc(-n2ccc(-c3ccccc3F)n2)c1")
"166 to 167 °C"
>>> reported_result("O=C(O)c1cccc(-n2cc(-c3cccc(O)c3)cn2)c1")
"272 to 274 °C"
>>> reported_result("COc1cccc2c1CCc1cn(-c3ccc(C(=O)O)cc3)nc1-2")
"288 to 290 °C"
>>> reported_result("O=C(O)c1cccc(-c2ccn(-c3ccc(OC(F)F)cc3)n2)c1")
"182 to 183 °C"
>>> reported_result("O=C(O)c1ccc(-n2cnc(-c3ccccc3)c2)cc1")
"263 to 265 °C"
